Target: Transient receptor potential cation channel subfamily A member 1 (Homo sapiens, UniProt O75762)
Sequence (O75762 whole entry): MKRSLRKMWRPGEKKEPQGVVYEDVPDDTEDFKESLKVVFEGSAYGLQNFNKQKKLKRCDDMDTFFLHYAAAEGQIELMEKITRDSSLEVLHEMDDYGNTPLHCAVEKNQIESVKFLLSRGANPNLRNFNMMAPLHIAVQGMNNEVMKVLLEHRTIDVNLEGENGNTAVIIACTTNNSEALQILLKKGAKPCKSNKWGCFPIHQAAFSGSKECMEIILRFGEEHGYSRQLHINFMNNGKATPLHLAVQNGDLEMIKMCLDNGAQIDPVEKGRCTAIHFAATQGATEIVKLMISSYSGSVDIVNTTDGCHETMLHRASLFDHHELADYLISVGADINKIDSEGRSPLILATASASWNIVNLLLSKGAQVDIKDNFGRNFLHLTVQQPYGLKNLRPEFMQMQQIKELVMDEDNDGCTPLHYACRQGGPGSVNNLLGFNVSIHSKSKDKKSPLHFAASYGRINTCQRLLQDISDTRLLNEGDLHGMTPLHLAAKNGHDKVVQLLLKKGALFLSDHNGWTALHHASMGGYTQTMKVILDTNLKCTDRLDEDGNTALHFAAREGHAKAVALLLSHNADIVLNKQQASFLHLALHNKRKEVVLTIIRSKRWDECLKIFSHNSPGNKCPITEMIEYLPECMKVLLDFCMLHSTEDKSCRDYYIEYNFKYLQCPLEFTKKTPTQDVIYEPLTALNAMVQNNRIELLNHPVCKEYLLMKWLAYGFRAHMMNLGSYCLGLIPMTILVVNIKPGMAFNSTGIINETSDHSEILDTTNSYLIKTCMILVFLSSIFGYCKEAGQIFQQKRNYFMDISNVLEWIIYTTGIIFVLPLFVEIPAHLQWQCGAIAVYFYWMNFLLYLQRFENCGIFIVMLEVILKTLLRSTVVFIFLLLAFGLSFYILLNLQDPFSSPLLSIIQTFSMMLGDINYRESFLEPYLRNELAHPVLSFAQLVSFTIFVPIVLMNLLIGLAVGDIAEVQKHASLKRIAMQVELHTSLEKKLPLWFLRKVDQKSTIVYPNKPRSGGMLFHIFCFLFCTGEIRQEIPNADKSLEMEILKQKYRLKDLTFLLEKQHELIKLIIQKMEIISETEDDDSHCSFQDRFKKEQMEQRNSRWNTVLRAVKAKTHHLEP
Assay: Inhibition of full length human TRPA1 at a holding potential of 15 mV measured after 1 min by PatchXpress electrophysiology assay
For each entry below, report its IC50 value.
Lab book: enter the figure in nM, no units written.

Request: Look up IC50 for this molecule: `Fc1ccc(-c2n[nH]c3cc(OC(F)(F)F)cnc23)cc1F`
Response: 134

Request: Look up IC50 for this molecule: `Fc1ccc(Nc2n[nH]c3cc(OC(F)(F)F)ccc23)cc1F`
Response: 131

Request: Look up IC50 for this molecule: `Fc1ccc2[nH]c(-c3n[nH]c4cc(OC(F)(F)F)cnc34)cc2c1`
Response: 91
